Where these numbers come from: PubChem BioAssay AID1159580

- Experiment description: chemical genetic growth profiling, strain panel (AID 1159580);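 further: tested at 20 µM; growth read once vehicle control cultures reached saturation at 30 °C; 1 = growth at the plate median or of vehicle wells; lower values mean less growth of the strain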
- Condition: S. cerevisiae deletion strains, growth OD, locus YOR083W, strain WHI5 (second series), active compounds read low
Among all 5,500 compounds or so, about 2,000 (36%) were called active. About 18% were inconclusive and are not listed. This is one part of the list.
Quantity kind: normalized growth
Answer with a number only.

These solved cases illustrate the format of a correct answer.
molecule=NCCCCNS(=O)(=O)c1cccc2c(Cl)cccc12 result_number=1.02
molecule="CC(C)C[C@H](NC(=O)C1OC1C(=O)O)C(=O)NCCCCN=C(N)N (some centres undefined)" result_number=0.979
molecule=O=c1c(-c2ccc(O)cc2)coc2cc(O)cc(O)c12 result_number=1.03
molecule=O=c1c2ccccc2[se]n1-c1ccccc1 result_number=0.0766
molecule=O=C(c1cc(O)c(O)c([N+](=O)[O-])c1)c1ccccc1F result_number=0.996
molecule="N=c1ccn2c(n1)OC1C(O)[C@@H](CO)O[C@H]12 (some centres undefined)" result_number=1.03
molecule=Nc1nc(N)c2nc(-c3ccccc3)c(N)nc2n1 result_number=0.969
molecule=CC(=O)Oc1cc(C(C)C)c(OCCN(C)C)cc1C result_number=1.01
molecule=CNCCC=C1c2ccccc2CCc2ccccc21 result_number=1.01
molecule=Nc1ccc(N2C(=O)c3ccccc3C2=O)c(Cl)c1 result_number=1.02

Item under review: N[C@@H](Cn1cc(I)c(=O)[nH]c1=O)C(=O)O . Reported normalized growth?
0.998

###

- Experiment description: chemical genetic growth profiling, strain panel (AID 1159580)
- Condition: S. cerevisiae deletion strains, growth OD, locus YJR016C, strain ILV3
In all, about 5,500 compounds went through this assay and about 2,000 (36%) were called active. Not shown: some 18% with an inconclusive outcome. Cut-off read from the data, not from the text of the source: active = normalized growth mostly below about 0.91 (no sharp cut-off); inconclusive = no clear call, values can overlap the other calls; inactive = mostly above about 0.92. The list shows a part of the results.
Mark one answer only. Choices: yes = active, no = inactive

compound=O=C(CSCc1nc(-c2ccc(Cl)cc2)cs1)N/N=C\c1cccs1 classification=no
compound=O=C1Nc2ccccc2/C1=N/N=C\c1ccccc1Cl classification=no
compound=N/C(CSc1ccc(Cl)cc1)=N/OC(=O)c1ccc(C(F)(F)F)cc1 classification=yes

Which result was noted for this compound in the test: N#Cc1c(Br)cnn1Cc1cc(C(F)(F)F)cc(C(F)(F)F)c1
no

Which result was noted for this compound in the test: CC(C)CSc1nnc(CSCc2nc(-c3ccc(Cl)cc3)cs2)n1C
no

Which result was noted for this compound in the test: COc1ccc(C2CC(c3ccccc3)=Nc3ccccc3S2)cc1OC (stereo not given)
no

Which result was noted for this compound in the test: N=c1ccc2nc3c(Cl)c4c(c(Cl)c3oc-2c1S(=O)(=O)O)Nc1ccc(N)c(S(=O)(=O)O)c1O4
no

Which result was noted for this compound in the test: CCC(C)COC(=O)/C=C/c1ccc(N=Cc2ccc(OC)cc2)cc1 (stereo not given)
no

Which result was noted for this compound in the test: CC(O)(CNCc1ccc(Cl)cc1)CSc1ccccc1Cl (stereo not given)
no

Which result was noted for this compound in the test: Cc1ccc(C(O)(c2ccccc2)c2ccccc2)c2ccccc12
no

Which result was noted for this compound in the test: CC(C)(C)c1cc2nc(C(F)(F)F)cc(NNC(=O)c3ccc(Cl)cc3)n2n1
no

###

- Experiment description: chemical genetic growth profiling, strain panel (AID 1159580);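 further: tested at 20 µM; growth read once vehicle control cultures reached saturation at 30 °C; 1 = growth at the plate median or of vehicle wells; lower values mean less growth of the strain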
- Condition: S. cerevisiae deletion strains, growth OD, locus YDR388W, active compounds read low
Among all 5,500 compounds or so, about 2,000 (36%) were called active. Inconclusive results (about 18%) are left out. Some of the results follow.
Quantity kind: normalized growth
Answer with a number only.

These solved cases illustrate the format of a correct answer.
compound=CC(=O)Oc1cc(OC(C)=O)c2c(=O)c(-c3ccccc3)coc2c1 result_number=1
compound=CC(C)=CCc1c2c(c(O)c3c(=O)c(O)c(-c4ccccc4)oc13)C=CC(C)(C)O2 result_number=0.745
compound="CCC(CCC(C)[C@H]1CCC2C3CC=C4C[C@@H](O)CC[C@]4(C)C3CC[C@@]21C)C(C)C (some centres not stated)" result_number=0.975
compound=O=c1c(-c2ccc(O)cc2)coc2cc(O)cc(O)c12 result_number=1.03

Item under review: C#CCOS(=O)OC1CCCCC1Oc1ccc(C(C)(C)C)cc1 (configuration not stated) . Reported normalized growth?
0.994

Item under review: COC(=O)C1=C(C)NC(C)=C(C(=O)OCCN(C)Cc2ccccc2)C1c1cccc([N+](=O)[O-])c1 (configuration not stated) . Reported normalized growth?
0.993

Item under review: O=c1c(-c2ccccc2)coc2cc(O)cc(O)c12 . Reported normalized growth?
0.879

Item under review: NCCc1ccc(O)cc1 . Reported normalized growth?
1

Item under review: CCC(/C=C/[C@@H](C)[C@H]1CCC2C3CC=C4C[C@@H](O)CC[C@]4(C)C3CC[C@@]21C)C(C)C (some centres not stated) . Reported normalized growth?
0.989

###

- Experiment description: chemical genetic growth profiling, strain panel (AID 1159580);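 further: tested at 20 µM; growth read once vehicle control cultures reached saturation at 30 °C; 1 = growth at the plate median or of vehicle wells; lower values mean less growth of the strain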
- Condition: S. cerevisiae deletion strains, growth OD, locus YMR129W
The whole screen tested about 5,500 compounds, of which about 2,000 (36%) were called active. Roughly 18% stayed inconclusive and do not appear here. Rule as the data show it: active = normalized growth mostly below about 0.91 (no sharp cut-off); inconclusive = no clear call, values can overlap the other calls; inactive = mostly above about 0.92. The list shows a part of the results.
Mark one answer only. Choices: Y (active), N (inactive)

molecule=COc1cc2c(cc1OC)-c1cc3ccc(OC)c(OC)c3c[n+]1CC2 classification=N
molecule=O=c1c2ccccc2oc2ccccc12 classification=N
molecule=COc1c2c(cc3c1OCO3)CC[N+](C)=C2 classification=N

Which result was noted for this molecule in the test: COc1ccc(-c2cc(=O)c3c(OC)c(OC)c(OC)c(OC)c3o2)cc1
N

Which result was noted for this molecule in the test: COC(=O)C1=C(C)NC(C)=C(C(=O)OCC(C)C)C1c1ccccc1[N+](=O)[O-] (configuration not stated)
Y

Which result was noted for this molecule in the test: O=C(O)/C=C(\CC(=O)O)C(=O)O
N

Which result was noted for this molecule in the test: CC(=O)O[C@H]1C[C@@]2(C)[C@H](c3ccoc3)OC(=O)[C@H]3O[C@]32[C@@]2(C)C1[C@]1(C)C(C[C@H]2OC(C)=O)C(C)(C)[C@H](OC(C)=O)C[C@@H]1OC(C)=O (some centres not stated)
N

Which result was noted for this molecule in the test: CC(=O)O[C@@H]1CC2C(C)(C)[C@H](O)C[C@H](O)[C@]2(C)C2CC[C@@]3(C)[C@H](c4ccoc4)OC(=O)[C@H]4O[C@]43[C@@]21C (some centres not stated)
N

Which result was noted for this molecule in the test: CC1=NCCc2c1[nH]c1cc(O)ccc21
N

Which result was noted for this molecule in the test: N[C@@H]1CONC1=O
N

Which result was noted for this molecule in the test: CCCCOc1cc(CC2CNC(=O)N2)ccc1OC (configuration not stated)
N

Which result was noted for this molecule in the test: CC(=O)O[C@@H]1CC2C(C)(C)C(=O)CC[C@]2(C)C2CC[C@@]3(C)[C@H](c4ccoc4)OC(=O)C4OC43[C@@]21C (some centres not stated)
N

Which result was noted for this molecule in the test: CC(=O)Nc1cccc(O)c1
N

Which result was noted for this molecule in the test: COc1ccc(-c2cc(=O)c3c(O)c(OC)c(OC)c(OC)c3o2)cc1
N

Which result was noted for this molecule in the test: C[N+]1(CCCCC[N+]2(C)CCCC2)CCCC1
N

Which result was noted for this molecule in the test: CC(=O)CC(c1ccccc1)c1c(O)c2ccccc2oc1=O (configuration not stated)
N

Which result was noted for this molecule in the test: O=C(O)c1cc(=O)c2ccccc2o1
N

###

Listed here: items and their measured normalized growth.
- Experiment description: chemical genetic growth profiling, strain panel (AID 1159580);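 further: tested at 20 µM; growth read once vehicle control cultures reached saturation at 30 °C; 1 = growth at the plate median or of vehicle wells; lower values mean less growth of the strain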
- Condition: S. cerevisiae deletion strains, growth OD, locus YKL067W, strain YNK1, active compounds read low
Out of some 5,500 compounds screened, about 2,000 (36%) were called active. Roughly 18% stayed inconclusive and do not appear here. This is one part of the list.
Answer with a number only.

molecule=Fc1ccc(N/N=C\Cc2nnnn2-c2ccccc2)c(F)c1 result_number=0.427
molecule=O=C(NNC(=O)c1csc(-c2cccs2)n1)c1ccc(C(F)(F)F)cc1 result_number=0.713
molecule=CC(C)c1ccc(-c2cc(=O)c3ccccc3o2)cc1 result_number=0.812
molecule="CCC(C)Cn1c(Sc2ncc([N+](=O)[O-])s2)n[nH]c1=O (stereo unspecified)" result_number=0.792
molecule="CC(O)(CNCc1ccc(Cl)cc1)CSc1ccccc1Cl (stereo unspecified)" result_number=0.971

Item under review: Cc1ccc2c(c1)CCCN2CC(=O)N(c1ccccc1)C1CCCCC1 . Reported normalized growth?
0.946

Item under review: N/C(CSc1ncccc1C(F)(F)F)=N/OC(=O)Nc1cccc(Cl)c1 . Reported normalized growth?
0.897

Item under review: O=C(NCc1cccs1)c1csc(Cc2c(Cl)cccc2Cl)n1 . Reported normalized growth?
0.996
